target: Phosphodiesterase 4 (Homo sapiens, UniProt P27815+Q08499+Q07343+Q08493)
assay.comment: Affinity for phosphodiesterase (PDE IV) in guinea pig brain membrane using [3H]rolipram displacement.
Format: cell membranes, Cavia porcellus
run.parameters: target entry is the homologue from another species
Quick list: log10 of Ki per entry.
Recall that a logarithmic scale is used here: each number is log10 of Ki in nM.

Please review the entries below; each comes with its answer.
[
  {
    "compound": "COC(=O)N1CCC(Cc2ccncc2)(c2ccc(OC)c(OC3CCCC3)c2)C1=O (centres undefined)",
    "target": "Phosphodiesterase 4 (Homo sapiens, UniProt P27815+Q08499+Q07343+Q08493)",
    "measured.number": 2.91
  },
  {
    "compound": "COc1ccc(C2(Cc3ccncc3)CCN(C(=O)OC(C)C)C2=O)cc1OC1CCCC1 (centres undefined)",
    "target": "Phosphodiesterase 4 (Homo sapiens, UniProt P27815+Q08499+Q07343+Q08493)",
    "measured.number": 2.05
  },
  {
    "compound": "COc1ccc(C2(Cc3ccncc3)CCN(CC3CCCCC3)C2=O)cc1OC1CCCC1 (centres undefined)",
    "target": "Phosphodiesterase 4 (Homo sapiens, UniProt P27815+Q08499+Q07343+Q08493)",
    "measured.number": 1.63
  }
]

If you can, please state the reported log10 of Ki value of COc1ccc(C2(Cc3cc[n+]([O-])cc3)CCNC2=O)cc1OC1CCCC1 (centres undefined) .
3.35

Where these numbers come from: ChEMBL document CHEMBL1130752
